experimental-details: clinical
conditions: human, in vivo, po
property-measured: Tmax

Tmax in this record for CC[C@@H]1CN(C(=O)NCC(F)(F)F)C[C@@H]1c1cnc2cnc3[nH]ccc3n12 [upadacitinib] : 2 to 4 h

---

experimental-details: Plasma protein binding and blood to plasma partitioning
Format: in vitro ADME
conditions: human, read-out: Bound to plasma proteins (converted)
property-measured: fraction unbound
Just the number, please, no unit attached.

fraction unbound in this record for `CC[C@@H]1CN(C(=O)NCC(F)(F)F)C[C@@H]1c1cnc2cnc3[nH]ccc3n12` : 0.48

Provenance of the data: patent US20230233555A1
